PROCEDURE DETAILS: Uptake over CACO-2 cell monolayers
Assay type: in vitro ADME
APPLIED CONDITIONS: human, read-out: Efflux ratio Papp (B > A/A > B)
EXPERIMENTAL READOUT: efflux ratio
Give bare numbers.

>>> df
                                   molecule  experimental_readout  readout_value
0  CO[C@@H]1[C@@H](n2cc(-c3ccc(C)c(F)c3)nn2)[C@@H](O)[C@@H](CO)O[C@@H]1Sc1cc(Cl)cnc1C#N [Example 13]          efflux ratio            1.3
1  CO[C@@H]1[C@@H](n2cc(-c3ccc(C)c(F)c3)nn2)[C@@H](O)[C@@H](CO)O[C@@H]1Sc1cncc(Cl)c1 [Example 35]          efflux ratio            1.4
2  OCC1O[C@H](Sc2cncc(Cl)c2)C(O)[C@@H](n2cc(-c3cc(F)c(F)c(F)c3)nn2)[C@H]1O (some centres unmarked)          efflux ratio              9
3  CO[C@@H]1[C@@H](n2cc(-c3ccc(C)c(F)n3)nn2)[C@@H](O)[C@@H](CO)O[C@@H]1Sc1cncc(Cl)c1 [Example 43]          efflux ratio            1.3

Please give efflux ratio for each item listed below.
1. Cc1ccc(-c2cn([C@@H]3C(O)[C@@H](Sc4cc(Cl)cnc4C#N)OC(CO)[C@@H]3O)nn2)cc1F (some centres unmarked)
2. N#Cc1ncc(Cl)cc1S[C@H]1OC(CO)[C@H](O)[C@H](n2cc(-c3cc(F)c(Cl)c(F)c3)nn2)C1O (some centres unmarked)
3. CO[C@@H]1[C@@H](n2cc(-c3cc(F)c(F)c(F)c3)nn2)[C@@H](O)[C@@H](CO)O[C@@H]1Sc1cncc(Br)c1 [Example 1]

1. 10
2. 9
3. 1.2

May I ask what efflux ratio has been recorded for CO[C@@H]1[C@@H](n2cc(-c3ccc(C)c(F)c3)nn2)[C@@H](O)[C@@H](CO)O[C@@H]1Sc1cncc(Br)c1 [Example 36] ? 1.1

###

MEASURED ON: galectin-3 (Homo sapiens (Human))
Sequence (P17931 whole entry): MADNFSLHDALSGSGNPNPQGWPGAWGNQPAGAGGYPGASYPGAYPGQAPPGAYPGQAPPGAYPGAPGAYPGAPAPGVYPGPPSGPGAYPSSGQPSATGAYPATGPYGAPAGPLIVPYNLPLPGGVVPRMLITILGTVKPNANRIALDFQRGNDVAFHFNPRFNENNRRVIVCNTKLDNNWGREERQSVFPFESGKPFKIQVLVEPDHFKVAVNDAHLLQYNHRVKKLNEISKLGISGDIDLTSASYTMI
PROCEDURE DETAILS: Fluorescence anisotropy assay, inhibition of galectin / fluorescein tagged saccharide probe interaction
EXPERIMENTAL READOUT: Kd (nM)
Numbers only, in nM.

In [3]: df
Out[3]:
                                   compound  readout_value
0  CO[C@@H]1[C@@H](n2cc(-c3cc(F)c(C)c(F)c3)nn2)[C@@H](O)[C@@H](CO)O[C@@H]1Sc1cc(Cl)ccc1C#N             50

Please give Kd for each item listed below.
1. COC1[C@@H](Sc2cc(Cl)cnc2N2CC3(COC3)C2)OC(CO)[C@H](O)[C@@H]1n1cc(-c2cc(F)c(Cl)c(F)c2)nn1 (some centres unmarked)
2. CO[C@@H]1[C@@H](n2cc(-c3cc(F)c(Cl)c(F)c3)nn2)[C@@H](O)[C@@H](CO)O[C@@H]1Sc1cc(Cl)cnc1C#N
3. CO[C@@H]1[C@@H](n2cc(-c3cc(F)c(Cl)c(F)c3)nn2)[C@@H](O)[C@@H](CO)O[C@@H]1Sc1cc(Cl)ccc1C(=O)N1CCCCC1
4. CO[C@@H]1[C@@H](n2cc(-c3cc(F)c(F)c(F)c3)nn2)[C@@H](O)[C@@H](CO)O[C@@H]1Sc1cc(Cl)cnc1C#N
5. CO[C@@H]1[C@@H](n2cc(-c3cc(F)c(Cl)c(F)c3)nn2)[C@@H](O)[C@@H](CO)O[C@@H]1Sc1cnc(C(F)(F)F)c(C)c1
6. CO[C@@H]1[C@@H](n2cc(-c3cc(F)c(Cl)c(F)c3)nn2)[C@@H](O)[C@@H](CO)O[C@@H]1Sc1cncc(Br)c1

1. 49
2. 34
3. 120
4. 35
5. 280
6. 21

Please give Kd for each item listed below.
1. CC(C)O[C@@H]1[C@@H](n2cc(-c3cc(F)c(F)c(F)c3)nn2)[C@@H](O)[C@@H](CO)O[C@@H]1Sc1cncc(Br)c1
2. CO[C@@H]1[C@@H](n2cc(-c3cc(F)c(Cl)c(F)c3)nn2)[C@@H](O)[C@@H](CO)O[C@@H]1Sc1cncc(C#N)c1
3. CO[C@@H]1[C@@H](n2cc(-c3cc(F)c(F)c(F)c3)nn2)[C@@H](O)[C@@H](CO)O[C@@H]1Sc1cnc(C#N)c(Cl)c1

1. 150
2. 80
3. 65
